# Target Or System: Lysine-specific histone demethylase 1A (Homo sapiens)
# Protocol Details: In Vitro Enzyme Inhibition Assay: The enzymatic assay of LSD1 activity is based on Time Resolved-Fluorescence Resonance Energy Transfer (TR-FRET) detection. The inhibitory properties of compounds to LSD1 were determined in 384-well plate format under the following reaction conditions: 0.1-0.5 nM LSD1, 50 nM H3K4mel-biotin labeled peptide (Anaspec cat #64355), 2 μM FAD in assay buffer of 50 mM HEPES, pH7.3, 10 mM NaCl, 0.005% Brij35, 0.5 mM TCEP, 0.2 mg/ml BSA. Reaction product was determined quantitatively by TR-FRET after the addition of detection reagent Phycolink Streptavidin-allophycocyanin (Prozyme) and Europium-anti-unmodified histone H3 lysine 4 (H3K4) antibody (PerkinElmer) in the presence of LSD1 inhibitor such as 1.8 mM of Tranylcypromine hydrochloride (2-PCPA) in LANCE detection buffer (PerkinElmer) to final concentration of 12.5 nM and 0.25 nM respectively.
pIC50: −log10 of the molar value.
Outcome Measure: pIC50

Q: Give its pIC50 value. Item: `Cn1ncc2cc(-c3sc(N4CC[C@@H]5CNC[C@@H]5CC4)nc3-c3ccc(C#N)cc3)ccc21`
Ans: > 7.00
